B1: Azoarcus group I ribozyme (parent)
chain: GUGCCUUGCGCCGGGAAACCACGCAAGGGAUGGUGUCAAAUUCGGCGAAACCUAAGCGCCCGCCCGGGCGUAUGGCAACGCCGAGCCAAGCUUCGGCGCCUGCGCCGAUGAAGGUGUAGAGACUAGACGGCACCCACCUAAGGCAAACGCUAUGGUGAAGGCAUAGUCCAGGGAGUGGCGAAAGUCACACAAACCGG

Variants of: B1
Assay: reverse-splicing fitness (ratio to wild type); higher = more active; in vitro selection; Mg2+ level not given
value type: reverse-splicing fitness

# variant annotation, data value
records = [
    ("C82A A111C A120G A145G C150A C169U U176G", 0.00632),
    ("C82A A111U A120U A145G C150U U176C", 0.0125),
    ("C82U A120G C169U U176A", 0.0244),
    ("C82U A111C A120C A145U C169G U176C", 0.0132),
    ("C82A A111U A145C C150G C169U U176A", 0.00896),
    ("C82G A111G A120C C150A", 0.0154),
    ("A111U A120U C150U U176C", 0.171),
    ("A111C A145G C150U C169U U176G", 0.00751),
    ("C82U A111G A145C C150A C169A U176C", 0.00627),
    ("C82G A111U A145C C150G C169U U176A", 0.00891),
    ("C82A A120U A145U C150G", 0.0166),
    ("C82A A111U A145C C150A C169G U176G", 0.00831),
    ("A111G A145U C150A C169G", 0.016),
    ("C82U A111U C150U C169A U176C", 0.0125),
    ("C82A A111U A120G", 0.0152),
    ("C82U A111U A120U C150G U176C", 0.005),
    ("C82G A111G A145G C150A", 0.0499),
    ("C82A A111U A120G A145G C150A C169U U176C", 0.0167),
    ("A111G A145C C150G C169U U176C", 0.0138),
    ("C82U A111C C150A C169G", 0.00852),
    ("A111C A120U A145U C150A C169G U176C", 0.00388),
    ("C82A A111C A120G A145C C150U C169G U176A", 0.0217),
    ("C82G A111G A120U A145U U176A", 0.0168),
    ("A111G A120G A145U C150A C169G U176A", 0.0201),
    ("C82U A111G A120C A145C C150A U176A", 0.00938),
    ("C82A A111G A145U C169G U176C", 0.0131),
    ("A111C A120C A145G C169G U176C", 0.0244),
    ("C82A A111G A120C A145C C150A C169A U176C", 0.0105),
    ("A111C A120U A145G C150A C169U U176G", 0.00263),
    ("A111G A145U C150A C169U U176G", 0.00519),
    ("C82G A111G A120G A145G U176G", 0.00696),
    ("C82A A145C C150G C169A U176C", 0.00619),
    ("A111G C150A", 0.462),
    ("C82G A111U A120C C150G U176C", 0.009),
    ("C82U A120U A145U C150U C169A", 0.0024),
    ("C82U A111G C150U C169U U176A", 0.0126),
    ("C82A A111U A120G A145G C150U U176A", 0.00963),
    ("A111C A120G A145G C150A C169A U176G", 0.0058),
    ("C82A A111C A120G A145G C150G C169U U176G", 0.00784),
    ("C82U A111G A120C A145C C150A C169A U176A", 0.0104),
    ("A111G A120U A145U C150G C169G U176A", 0.00284),
    ("C82G A111C A145U C169U U176G", 0.00693),
    ("A111G A145C C150U C169U", 0.0495),
    ("C82G A120G A145U C150A U176G", 0.00553),
    ("A120C A145C C150A C169U U176A", 0.0342),
    ("A111G A120G A145C C169A U176A", 0.0345),
    ("C82A A111U A120U A145U C150A U176G", 0.00236),
    ("C82U A111G A145U C150G U176A", 0.0137),
    ("C82A A120C C150G C169G", 0.00866),
    ("C82G A120G C169A", 0.0302),
    ("C82U A120U A145C C150U C169U", 0.00331),
    ("C82U A111G C169U U176A", 0.0145),
    ("C82G A111U A145G C150G U176C", 0.0285),
    ("A120G A145U C150A C169U U176A", 0.0594),
    ("C82G A111C A120G C150U U176C", 0.0217),
    ("C150U U176G", 0.306),
    ("A111C A120C A145C C150A U176A", 0.0203),
    ("A111G A145U C169G U176C", 0.0429),
    ("C82U A111U A120G C150G C169G", 0.00757),
    ("C82A A111U A120U A145C C150A C169G U176G", 0.0026),
    ("C82U A111C C150U C169A U176C", 0.0134),
    ("A111U A120G C150U C169G U176A", 0.0314),
    ("C82G A111C A120C A145G C150U U176G", 0.00788),
    ("C82G A111G A120U A145C C169A", 0.00211),
    ("A111G A120U A145G C169G", 0.087),
    ("C82A A111G A145G C150G C169A U176A", 0.0148),
    ("C82U A120U A145G C150G C169A U176A", 0.0107),
    ("C82G A111C A120G A145U C150U C169G", 0.0113),
    ("C82G A120U A145G C150G C169U U176G", 0.00451),
    ("C82A A111G A120G A145G U176G", 0.00638),
    ("C82U A111C A120U A145G C150G C169G U176G", 0.00376),
    ("A111U A120G A145G C150G C169G U176G", 0.00518),
    ("C82G A111G A120C A145G C150A U176A", 0.0144),
    ("C82A A120C C150A U176C", 0.0248),
    ("A120U C150G", 0.206),
    ("C82G A111U A120G C150U C169G U176G", 0.0053),
    ("C82A A111G A120G U176A", 0.0146),
    ("C82A A120C A145C C150U C169G U176C", 0.0186),
    ("C82G A145G C150A C169G", 0.00861),
    ("C82A A111U A120C C150A C169A U176G", 0.0108),
    ("C82A A111U A120C A145G C150A C169U", 0.0104),
    ("C82U A111C A120C A145U C150U C169U U176A", 0.0142),
    ("C82G A120C A145C C169U", 0.0218),
    ("C82G A111G A145U C150U C169A U176C", 0.0132),
    ("C82A A111U A120U A145G C169G U176C", 0.00486),
    ("C82G A111U A120U A145G C150G C169A U176A", 0.0114),
    ("C82A A111G A120C A145G C150G C169A U176G", 0.00827),
    ("C82G A111U A120G A145C C150G U176G", 0.00342),
    ("C82U A111G A145G C150U U176A", 0.135),
    ("C82U A111U A120G A145G C150U C169G U176G", 0.00411),
    ("C82A A111U A120U C150U U176G", 0.00345),
]
